assay: in vivo; conditions: Kunming, mouse, po
Description: Therapeutic index, ratio of ED50 for induction of catalepsy to ED50 for antipsychotic activity in po dosed Kunming mouse assessed as reduction in MK801-induced hyperactivity
Assignment: determine reported selectivity ratio for the given molecules.
Give bare numbers.

molecule	selectivity ratio
O=C(CCCN1CCC(O)(c2ccc(Cl)cc2)CC1)c1ccc(F)cc1	2.38

API: the following record is the query input.
Quote selectivity ratio reported for Cc1c(OCCCCN2CCC(c3noc4cc(F)ccc34)CC2)ccc2c3c(c(=O)oc12)CCC3 please. 214

---

target: 5-hydroxytryptamine receptor 2A (Rattus norvegicus)
Sequence (P14842 whole entry): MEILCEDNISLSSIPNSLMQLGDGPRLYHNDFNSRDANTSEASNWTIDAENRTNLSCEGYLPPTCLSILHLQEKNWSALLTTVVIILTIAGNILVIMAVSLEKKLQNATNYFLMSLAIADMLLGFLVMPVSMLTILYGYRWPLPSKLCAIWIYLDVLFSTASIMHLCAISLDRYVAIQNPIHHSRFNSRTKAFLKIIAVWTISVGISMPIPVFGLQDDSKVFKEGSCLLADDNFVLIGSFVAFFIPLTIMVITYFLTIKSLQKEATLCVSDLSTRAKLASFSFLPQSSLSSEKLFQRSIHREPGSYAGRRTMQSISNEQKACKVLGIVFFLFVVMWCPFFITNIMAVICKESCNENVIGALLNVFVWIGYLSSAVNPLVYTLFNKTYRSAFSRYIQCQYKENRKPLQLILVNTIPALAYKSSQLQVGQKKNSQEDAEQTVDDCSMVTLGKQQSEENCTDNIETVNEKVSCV
// returns FALSE unless Ki is strictly below 100 nM, in which case TRUE

molecule	class.label
O=c1oc2cc(OCCCCN3CCC(c4noc5cc(F)ccc45)CC3)ccc2c2c1CCCC2	FALSE
O=c1oc2cc(OCCCCN3CCC(c4nc5ccccc5o4)CC3)ccc2c2c1CCC2	TRUE
Cc1cccc(N2CCN(CCCCOc3ccc4c5c(c(=O)oc4c3)CCC5)CC2)c1C	TRUE
O=c1oc2cc(OCCCN3CCC(c4noc5cc(F)ccc45)CC3)ccc2c2ccccc12	FALSE
O=c1oc2cc(OCCCCN3CCN(c4cccc(C(F)(F)F)c4)CC3)ccc2c2c1CCC2	FALSE
O=c1oc2c(Cl)c(OCCCCN3CCC(c4noc5cc(F)ccc45)CC3)ccc2c2c1CCC2	TRUE
O=c1oc2cc(OCCCCN3CCC(c4noc5cc(F)ccc45)CC3)ccc2c2ccccc12	FALSE
COc1ccccc1N1CCN(CCCCOc2ccc3c4c(c(=O)oc3c2Cl)CCC4)CC1	FALSE

API: query returns whether the compound falls strictly under 100 nM in Ki. Query: COc1ccccc1N1CCN(CCCCOc2ccc3c4c(c(=O)oc3c2)CCC4)CC1 TRUE

Origin of measurements: ChEMBL document CHEMBL3120114
